Data provenance: patent EP4125905B1

assay: Single-dose saliva, urine and plasma PK of oral gepotidacin in hepatic impairment and matched controls; type: in vivo, human; settings: human, saliva / unbound plasma; stated across the renal and hepatic impairment studies; read-out: ratio of saliva AUC to unbound plasma AUC (RAUC)
measure name: Kp

"O=c1ccc2ncc(=O)n3c2n1C[C@H]3CN1CCC(NCc2cc3c(cn2)OCCC3)CC1" yielded Kp of ≥ 0.75

* * *

test: Plasma and pulmonary (ELF, AM) pharmacokinetics after intravenous gepotidacin in healthy adult subjects; assay type: in vivo, human; conditions: human, alveolar macrophages / free plasma; single IV infusion of 1000 mg over 2 hours; read-out: AUC(0-12) ratio of AM to free plasma
measure name: Kp
One number for each entry.

O=c1ccc2ncc(=O)n3c2n1C[C@H]3CN1CCC(NCc2cc3c(cn2)OCCC3)CC1 [gepotidacin] yielded Kp of 178

* * *

assay: Plasma and pulmonary (ELF, AM) pharmacokinetics after intravenous gepotidacin in healthy adult subjects; format: in vivo, human; settings: human, plasma; read-out: gepotidacin free fraction
measure name: fraction unbound
Answers are plain numbers.

"O=c1ccc2ncc(=O)n3c2n1C[C@H]3CN1CCC(NCc2cc3c(cn2)OCCC3)CC1" yielded fraction unbound of 0.67
